tested on: HeLa; assay: Cytotoxicity against human HeLa cells after 72 hrs by MTT assay; format: functional, cell-based
recorded.endpoint: IC50 (µM)
Give the value in µM but do not write µM after it.

query: Short answer please: IC50, HeLa, entry C[C@H](OCc1cn([C@@H]2O[C@H](COCc3ccccc3)[C@@H](OCc3ccccc3)[C@H](OCc3ccccc3)[C@H]2OCc2ccccc2)nn1)[C@H](NC(=O)OC(C)(C)C)C(=O)O
result: 31.5

query: Record lookup: for HeLa, what IC50 belongs to CO[C@H]1O[C@H](Cn2cc(CO[C@@H](C)[C@H](NC(=O)OC(C)(C)C)C(=O)O)nn2)[C@@H](OCc2ccccc2)[C@H](OCc2ccccc2)[C@H]1OCc1ccccc1 ?
result: 69.5

query: Give the reported IC50 for CO[C@H]1O[C@H](Cn2cc(COC[C@H](NC(=O)OC(C)(C)C)C(=O)O)nn2)[C@@H](OCc2ccccc2)[C@H](OCc2ccccc2)[C@H]1OCc1ccccc1 (system: HeLa).
result: 75.4

query: State its IC50 on HeLa: CO[C@H]1O[C@H](Cn2cc(COC[C@H](NC(=O)OC(C)(C)C)C(=O)O)nn2)[C@@H](OCc2ccccc2)[C@H](OCc2ccccc2)[C@@H]1OCc1ccccc1
result: 54.2
